Ref: patent US20220259593A1

- System: K562 CRISPRi cells
- Run Description: Constant region variant library pooled growth screen, K562
- Format: cell-based, human
- Experimental Conditions: sgRNA constant region variants; activity relative to the unmodified constant region cr995
The threshold is inclusive: Mean relative activity of exactly 0.2 counts as true; values below receive false.

1. cr403 (nucleic acid, listed as DNA, chemistry not fully specified) guide: GTTTAAGAGCTAAGCTGGAAACAGCATAGCAAGCTTAAATAAGGCTAGTCCGTTATCAACTTGAAAAAGTGGCACAGAGTCTGTGCT	true
2. cr217 (nucleic acid, listed as DNA, chemistry not fully specified) guide: GTTTAAGAGCTAAGCTGGAAACAGCATAGCAATTTTAAATAAGGCTAGTCCGTTATCAACTTGACAAAGTGGCACCGAGTCGGTGCT	true
3. cr221 (nucleic acid, listed as DNA, chemistry not fully specified) guide: GTTTAAGAGCTAAGCTGGAAACAGCATAGCAAATTTAAATAAGGCTAGTCCGTTATGAACTTGAGAAAGTGGCACCGAGTCGGTGCT	false

Problem: Check the entry cr808 (nucleic acid, listed as DNA, chemistry not fully specified) guide: GTTTAAGAGCTAAGCTGGAAACAGCATAGCAAGTTTAAATAAAGCTAGTCTGTTATCAAATTGAAAAATTGTCACCGAGTCGGTGAT : does Mean relative activity equal or exceed 0.2?
Result: false

Problem: Check the entry cr826 (nucleic acid, listed as DNA, chemistry not fully specified) guide: GTTTAAGAGCTAAGCTGGAAACAGCATAGCAATTTTAAATAAGGCTAGCCCGTTTTCAACTTGAAAAAGTGGCACCGAGTCGGTGCT : does Mean relative activity equal or exceed 0.2?
Result: false

Problem: Check the entry cr274 (nucleic acid, listed as DNA, chemistry not fully specified) guide: GTTTAAGAGCTAAGCTGGAAACAGCATAGCAACTTTAAATAAGGCTAGTCCGTTATCAACCTGAAAAGGTGGCACCGAGTCGGTGCT : does Mean relative activity equal or exceed 0.2?
Result: false

Problem: Check the entry cr322 (nucleic acid, listed as DNA, chemistry not fully specified) guide: GTTTAAGAGCTAAGCTGGAAACAGCATAGCAAGTTTAAATAAGGCTAGCCCGTTATGAACTTGAAAAAGTGGCACCGAGTCGGTGCT : does Mean relative activity equal or exceed 0.2?
Result: true
